# protocol: The drug is tested on the gut metagenome community of T-02 with ENA study accession number: PRJEB31790 for biotransformation under microaerobic condition. The drug concentrations were measured over 7 timepoints collected between 0 and 12 hours of incubation by liquid-chromatography-coupled mass spectrometry (LC–MS)
# Type: ADME
# Parameters: dose 5 uM, timepoint 0, 0.75, 1.5, 3, 6, 9, 12 hours
# condition.details: 5 µM
quantity: Bacterial Biotransformation

Examples from the recorded data:
* CNC(=C[N+](=O)[O-])NCCSCc1ccc(CN(C)C)o1 [RANITIDINE] | Compound NOT metabolized
* NS(=O)(=O)c1cc(C(=O)O)c(NCc2ccco2)cc1Cl [FUROSEMIDE] | Compound NOT metabolized
* CN(Cc1cnc2nc(N)nc(N)c2n1)c1ccc(C(=O)N[C@@H](CCC(=O)O)C(=O)O)cc1 [METHOTREXATE] | Compound metabolized
* CCC(C)(C)C(=O)O[C@H]1C[C@@H](C)C=C2C=C[C@H](C)[C@H](CC[C@@H]3C[C@@H](O)CC(=O)O3)[C@H]21 [SIMVASTATIN] | Compound NOT metabolized
* CCOC(=O)C1=C(COCCN)NC(C)=C(C(=O)OC)C1c1ccccc1Cl (stereo not drawn) [AMLODIPINE] | Compound NOT metabolized
* CCOc1nc2cccc(C(=O)O)c2n1Cc1ccc(-c2ccccc2-c2nnn[nH]2)cc1 | Compound NOT metabolized
* C[C@]12C=CC(=O)C=C1CC[C@@H]1[C@@H]2[C@@H](O)C[C@@]2(C)[C@H]1CC[C@]2(O)C(=O)CO [PREDNISOLONE] | Compound metabolized

Task: Need Bacterial Biotransformation, item `C[C@@H](NCCCc1cccc(C(F)(F)F)c1)c1cccc2ccccc12`
Result: Compound NOT metabolized

Values compiled from ChEMBL document CHEMBL5724806.
